# Lookup of reported viability, T/C keyed by entry
# Tested on: 855422-203-R-J1-PDC spheroids with HUVEC/MSC, viability
# protocol description: Anticancer human tumor 855422-203-R-J1-PDC patient-derived bladder carcinoma cell line growth inhibition [PI3K]
# settings: second compound 1 µM; first compound 0.0316 µM; active compounds read low

Examples from the recorded data:
C#Cc1c(F)ccc2cc(O)cc(-c3ncc4c(N5CC6CCC(C5)N6)nc(OCC56CCCN5CC(F)C6)nc4c3F)c12 (stereo unspecified) + CC(Nc1ncnc2nc[nH]c12)c1cc2cccc(Cl)c2c(=O)n1-c1ccccc1 | 102%
CC(Cn1ccc(-c2ccc(C#N)c(Cl)c2)n1)NC(=O)c1cc(C(C)O)[nH]n1 (stereo unspecified) + CC(Nc1ncnc2nc[nH]c12)c1cc2cccc(Cl)c2c(=O)n1-c1ccccc1 | 92.9%
C[C@@H](NC(=O)c1ncnc(N)c1Cl)c1ncc(C(=O)Nc2cc(C(F)(F)F)c(Cl)cn2)s1 + CC(Nc1ncnc2nc[nH]c12)c1cc2cccc(Cl)c2c(=O)n1-c1ccccc1 | 85.2%
C#Cc1c(F)ccc2cc(O)cc(-c3ncc4c(N5CC6CCC(C5)N6)nc(OCC56CCCN5CC(F)C6)nc4c3F)c12 (stereo unspecified) + CC(Nc1ccc2c(c1)OCCn1cc(N3C(=O)OCC3C(F)F)nc1-2)C(N)=O | 38.7%
Cn1ncc(Cl)c1-c1cc(C(=O)NC(CN)Cc2cccc(F)c2)sc1Cl (stereo unspecified) + CC(Nc1ncnc2nc[nH]c12)c1cc2cccc(Cl)c2c(=O)n1-c1ccccc1 | 79.8%
C[C@@H](NC(=O)c1ncnc(N)c1Cl)c1ncc(C(=O)Nc2cc(C(F)(F)F)c(Cl)cn2)s1 + CC(Nc1ccc2c(c1)OCCn1cc(N3C(=O)OCC3C(F)F)nc1-2)C(N)=O | 34.8%

viability, T/C reported for this molecule CC(=O)c1c(C)c2cnc(Nc3ccc(N4CCNCC4)cn3)nc2n(C2CCCC2)c1=O + CC(Nc1ccc2c(c1)OCCn1cc(N3C(=O)OCC3C(F)F)nc1-2)C(N)=O : 31.2%

viability, T/C reported for this molecule CCN1CCN(Cc2ccc(Nc3ncc(F)c(-c4cc(F)c5nc(C)n(C(C)C)c5c4)n3)nc2)CC1 + COc1c(OCCCN2CCOCC2)ccc2c3n(c(=NC(=O)c4cnc(N)nc4)nc12)CCN3 : 4.02%

viability, T/C reported for this molecule CC(C)NCC(C(=O)N1CCN(c2ncnc3c2C(C)CC3O)CC1)c1ccc(Cl)cc1 (stereo unspecified) + CC(Nc1ccc2c(c1)OCCn1cc(N3C(=O)OCC3C(F)F)nc1-2)C(N)=O : 39.2%

viability, T/C reported for this molecule Cn1ncc(Cl)c1-c1cc(C(=O)NC(CN)Cc2cccc(F)c2)sc1Cl (stereo unspecified) + Cc1nc(NC(=O)N2CCCC2C(N)=O)sc1-c1ccnc(C(C)(C)C(F)(F)F)c1 : 64.8%

viability, T/C reported for this molecule CNC(=O)c1ccc(N2C(=S)N(c3ccc(C#N)c(C(F)(F)F)c3)C(=O)C2(C)C)cc1F + COc1c(OCCCN2CCOCC2)ccc2c3n(c(=NC(=O)c4cnc(N)nc4)nc12)CCN3 : 4.1%

----------
# Test system: 855422-203-R-J1-PDC spheroids with HUVEC/MSC, viability
# protocol description: Anticancer human tumor 855422-203-R-J1-PDC cell line growth inhibition [PI3K]; active = viability on the fitted dose curve at most 10% of control; inactive = the rest;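 further: agents incubated with spheroids for one week before read-out; 100% = DMSO vehicle-treated control wells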
# settings: second compound 1 µM; first compound 0.00316 µM
Assign a class; possible classes are TRUE (active), FALSE (inactive)

Qu. I'd appreciate the recorded outcome for Cn1ncnc1[C@H]1c2n[nH]c(=O)c3cc(F)cc(c23)N[C@@H]1c1ccc(F)cc1 + Cc1nc(NC(=O)N2CCCC2C(N)=O)sc1-c1ccnc(C(C)(C)C(F)(F)F)c1 from this test.
Ans. FALSE

Qu. I'd appreciate the recorded outcome for CC(C)n1nc(-c2ccc3oc(N)nc3c2)c2c(N)ncnc21 + Cc1nc(NC(=O)N2CCCC2C(N)=O)sc1-c1ccnc(C(C)(C)C(F)(F)F)c1 from this test.
Ans. FALSE

Qu. I'd appreciate the recorded outcome for CC(C)n1nc(-c2ccc3oc(N)nc3c2)c2c(N)ncnc21 + COc1c(OCCCN2CCOCC2)ccc2c3n(c(=NC(=O)c4cnc(N)nc4)nc12)CCN3 from this test.
Ans. TRUE
